Provenance of the data: patent US8211894B2

measurement-target: human mu opioid receptor (Homo sapiens, UniProt P35372)
Construct: host or cells: CHO-K1
Sequence (P35372 whole entry): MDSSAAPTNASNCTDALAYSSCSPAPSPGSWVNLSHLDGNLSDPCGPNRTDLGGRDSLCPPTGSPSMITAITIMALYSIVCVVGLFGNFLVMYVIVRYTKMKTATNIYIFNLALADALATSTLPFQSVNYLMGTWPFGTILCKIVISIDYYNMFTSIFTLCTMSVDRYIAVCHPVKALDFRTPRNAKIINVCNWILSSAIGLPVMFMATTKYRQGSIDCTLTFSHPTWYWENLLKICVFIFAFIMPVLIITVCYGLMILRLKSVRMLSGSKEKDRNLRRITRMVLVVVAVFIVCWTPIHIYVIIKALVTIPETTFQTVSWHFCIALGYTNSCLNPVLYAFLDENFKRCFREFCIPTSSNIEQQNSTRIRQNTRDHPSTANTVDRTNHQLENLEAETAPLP
experiment-summary: Human mu GTP-Eu nucleotide exchange assay (agonist mediated activation, CHO-K1 membranes)
Format: biochemical
experimental-parameters: bound GTP-Eu relative to DAMGO (IA=100); read-out: intrinsic activity (IA), expressed as a percentage
Listed here are compounds together with their documented Emax.

compound: CCCc1cn(CCN2[C@@H]3CC[C@H]2C[C@@H](c2cccc(C(N)=O)c2)C3)nn1 [Example 8]
unit-string: %
Emax: -4

compound: CC(C)Cc1nc(CCCN2[C@@H]3CC[C@H]2C[C@@H](c2cccc(C(N)=O)c2)C3)no1 [Example 14]
unit-string: %
Emax: -11

compound: NC(=O)c1cccc([C@H]2C[C@H]3CC[C@@H](C2)N3Cc2cn(C3CCC(F)(F)CC3)nn2)c1 [Example 4]
unit-string: %
Emax: 0

compound: NC(=O)c1cccc([C@H]2C[C@H]3CC[C@@H](C2)N3Cc2cncn2Cc2ccccc2)c1 [Example 11]
unit-string: %
Emax: 6

compound: NC(=O)c1cccc([C@H]2C[C@H]3CC[C@@H](C2)N3Cc2cn(C3CCCCC3)nn2)c1 [Example 1]
unit-string: %
Emax: -4

compound: NC(=O)c1cccc([C@H]2C[C@H]3CC[C@@H](C2)N3CCCn2cc(-c3ccc(F)cc3F)nn2)c1 [Example 9]
unit-string: %
Emax: -1
